# SYSTEM: human cathepsin S (Homo sapiens, UniProt P25774)
# Construct: purchased Enzo Life Sciences, Lörrach, Germany
# Sequence (P25774 115-331): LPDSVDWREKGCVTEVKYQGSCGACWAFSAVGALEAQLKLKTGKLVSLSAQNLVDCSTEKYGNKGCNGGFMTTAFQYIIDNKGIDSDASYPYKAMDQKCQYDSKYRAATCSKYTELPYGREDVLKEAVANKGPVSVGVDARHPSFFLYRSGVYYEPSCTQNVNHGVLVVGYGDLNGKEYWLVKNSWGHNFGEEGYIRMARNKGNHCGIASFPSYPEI
# EXPERIMENT DESCRIPTION: Cathepsin S inhibition assay (Cbz-Phe-Arg-AMC)
# Type: biochemical
# CONDITION CONTEXT: 20 µM inhibitor, 60 min; read-out: Residual activity @ 20 µM (%) Cat S
OBSERVED PROPERTY: remaining activity at 20 µM (%)
Output spec: scalar in %, unitless text.

Param item: CC(C)CC(NC(=O)Oc1ccccc1)C(=O)NC(Cc1ccccc1)C(=O)O (stereo not shown) ; param system: human cathepsin S (Homo sapiens, UniProt P25774); output remaining activity at 20 µM: 97

Param item: CC(C)C[C@H](NC(=O)Oc1ccc(NC(=O)N(Cc2ccccc2)Cc2ccccc2)c(Br)c1)C(=O)N1CCC[C@H]1C(=O)O ; param system: human cathepsin S (Homo sapiens, UniProt P25774); output remaining activity at 20 µM: 59

Param item: CC(C)CC(NC(=O)Oc1ccc(Cl)c(NC(=O)C(c2ccccc2)c2ccccc2)c1)C(=O)N1CCCC1C(=O)O (stereo not shown) ; param system: human cathepsin S (Homo sapiens, UniProt P25774); output remaining activity at 20 µM: 87

The measured values listed here are drawn from paper PMC12304826.
